biological target: Enzyme I C-terminal domain (tEIC) (Caldanaerobacter subterraneus); construct: gene PtsA; EIC, C-terminal domain (residues 261–575); assay: 1H-15N TROSY NMR chemical shift perturbation titration; format: binding
Sequence (Q8R7R4 250-573): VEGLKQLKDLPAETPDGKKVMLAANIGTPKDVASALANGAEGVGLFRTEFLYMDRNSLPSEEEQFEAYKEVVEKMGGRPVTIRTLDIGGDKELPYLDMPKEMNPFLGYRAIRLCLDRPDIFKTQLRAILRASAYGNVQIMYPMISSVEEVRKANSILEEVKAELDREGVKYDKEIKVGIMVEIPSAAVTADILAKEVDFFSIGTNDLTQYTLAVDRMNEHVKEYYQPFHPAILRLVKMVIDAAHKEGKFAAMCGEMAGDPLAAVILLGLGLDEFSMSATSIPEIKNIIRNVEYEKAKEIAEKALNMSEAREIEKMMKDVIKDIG
readoutKind: Kd (µM)

• C=C(CP(=O)(O)O)C(=O)O [cPEP, allylicphosphonate] = 2800

###

target: Enzyme I C-terminal domain (tEIC) (Caldanaerobacter subterraneus); construct: gene PtsA; EIC, C-terminal domain (residues 261–575); assay: 1H-15N TROSY NMR chemical shift perturbation titration; format: binding; settings: read-out: Kd
readoutKind: Kd

• C=C(OS(=O)(=O)O)C(=O)O [SEP, sulfoenolpyruvate] = 600 µM
